Origin of measurements: patent US10703751B2

pIC50 overview
- TEST_SYSTEM: CYP1A2 (Homo sapiens (Human), UniProt P05177)
- Sequence (P05177 whole entry): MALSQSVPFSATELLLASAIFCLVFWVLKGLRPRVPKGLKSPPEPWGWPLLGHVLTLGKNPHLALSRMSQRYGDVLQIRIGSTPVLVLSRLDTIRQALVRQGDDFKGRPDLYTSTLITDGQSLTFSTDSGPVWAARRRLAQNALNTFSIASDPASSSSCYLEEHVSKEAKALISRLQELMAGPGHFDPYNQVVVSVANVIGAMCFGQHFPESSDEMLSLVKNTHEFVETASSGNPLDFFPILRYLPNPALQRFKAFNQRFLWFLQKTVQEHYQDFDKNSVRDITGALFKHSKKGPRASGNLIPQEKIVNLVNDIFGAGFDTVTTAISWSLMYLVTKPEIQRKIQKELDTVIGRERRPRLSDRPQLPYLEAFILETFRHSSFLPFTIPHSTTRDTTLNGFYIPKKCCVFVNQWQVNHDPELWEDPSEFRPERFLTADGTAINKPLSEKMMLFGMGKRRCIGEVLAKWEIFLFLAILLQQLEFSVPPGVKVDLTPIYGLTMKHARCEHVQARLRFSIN
- PROCEDURE_TEXT: Reversible CYP inhibition, 1A2
- Assay type: in vitro ADME
- CONDITION_CONTEXT: reversible; up to 50 μM for Example 3, up to 25 μM for Examples 644 and 641; read-out: 1A2 IC50
pIC50: −log10 of the molar value.
READOUT_NAME: pIC50

MOLECULE: C[C@@H](O)c1nc2cnc3[nH]ccc3c2n1[C@H]1CC[C@H](CC#N)CC1 [Example 644 of WO2011086053]
RECORDED_RESULT: < 4.60
--
MOLECULE: CNc1cc2c(cn1)nc([C@@H](C)O)n2[C@H]1CC[C@H](CC#N)CC1 [Example 3]
RECORDED_RESULT: < 4.30
